- study_target: T1, Biotinylated human VEGF-165 (Acro Biosystem) (human, UniProt P15692 207-395, biotinylated (site not stated))
- T1 construct: Bought protein; also called human VEGFA
- T1 sequence (P15692 other isoform, or with tags, fused parts or gaps): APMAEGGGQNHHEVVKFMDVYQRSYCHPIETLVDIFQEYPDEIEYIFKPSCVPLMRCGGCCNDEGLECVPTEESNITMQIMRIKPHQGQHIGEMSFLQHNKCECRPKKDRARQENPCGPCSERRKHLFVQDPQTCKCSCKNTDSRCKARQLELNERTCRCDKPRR
- protocol_text: BLI, biotinylated antigen on streptavidin tips, 1:1 global fit
koff reference
endpoint_label: koff (s⁻¹)

1) 23D5.1 (VHH, Autonomous humanised VH domain (DotBody), from the 16C2.1-based library without heat challenge; E. coli, ATG codon 5' (possible initiator Met), 3' hexahistidine tag; also called DotBody 23D5.1) VHH: EVQLVESGGGLVQPGGSLRLSCAISGFDLATTDIDWVRQAPGKGLEWVARIFRPSDFTDYADSVKGRFTISADTSKNTVYLQMNSLRAEDTAVYYCVRPDSYAYNILFVTRTFNALHYRGQGTLVTVSS :: 0.000802
2) 21E6.1 (VHH, Autonomous humanised VH domain (DotBody), from the 16C2.1-based library with heat challenge; E. coli, ATG codon 5' (possible initiator Met), 3' hexahistidine tag; also called DotBody 21E6.1) VHH: EVQLVESGGGLVQPGGSLRLSCAISGFTLAATDIDWVRQAPGKGLEWVARIFTPTGFSDYADSVKGRFTISADTSKNTVYLQMNSLRAEDTAVYYCGIPELYAYNIFMDIPAYNDVYYRGQGTLVTVSS :: 0.000442
3) 20A2.1 (VHH, Autonomous humanised VH domain (DotBody), from the 16A2.1-based library with heat challenge; E. coli, ATG codon 5' (possible initiator Met), 3' hexahistidine tag; also called DotBody 20A2.1) VHH: EVQLVESGGGLVQPGGSLRLSCAISGFPLADTDIDWVRQAPGKGLEWVARIFSSYGSTDYADSVKGRFTISADTSKNTVYLQMNSLRAEDTAVYYCGRSDSIAYNIILPASTYSSRDYRGQGTLVTVSS :: 0.00055
4) 16A2.1 (VHH, E. coli, ATG codon 5' (possible initiator Met), 3' hexahistidine tag; also called anti-VEGF DotBody 16A2.1; clone 16A2.1) VHH: EVQLVESGGGLVQPGGSLRLSCAISGFALAETDIDWVRQAPGKGLEWVARIFSSGGNTDYADSVKGRFTISADTSKNTVYLQMNSLRAEDTAVYYCGRSDSIAYNVILPNSTYTARDYRGQGTLVTVSS :: 0.000986
